The values you see were collected from patent US10660967B2.

Here, each record is paired with measured Average of ulcer number data.
Tested on: gastric mucosa
protocol description: Ulcerogenic liability (ulcer index)
Format: in vivo, albino mice
condition set: orally, three successive days, 10 mg/kg indomethacin mol equivalent
Form: value (number only, do not type unit).

Example entries begin here.
molecule: COc1cc(/C=C/C(=O)CC(=O)/C=C/c2ccc(OC(=O)CCN)c(OC)c2)ccc1OC(=O)CCN.Cl.Cl [HCl-β-Ala-Cur]
readout kind: Average of ulcer number
reported measurement: 0
//
molecule: COc1cc(/C=C/C(=O)CC(=O)/C=C/c2ccc(OC(=O)[C@@H](N)CCSC)c(OC)c2)ccc1OC(=O)[C@@H](N)CCSC.Cl.Cl [HCl-L-Met-Cur]
readout kind: Average of ulcer number
reported measurement: 0

Now consider the entry below.
Kindly note the recorded Average of ulcer number for COc1cc(/C=C/C(=O)CC(=O)/C=C/c2ccc(OC(=O)CNC(=O)OCC3c4ccccc4-c4ccccc43)c(OC)c2)ccc1OC(=O)CNC(=O)OCC1c2ccccc2-c2ccccc21 [Fmoc-Gly-Cur] , which is 0

----------
System: PHA-stimulated splenocytes
protocol description: Proliferative response of PHA-stimulated splenocytes (MTT assay)
Assay type: cell-based
condition set: PHA 5 μg/ml, 72 hr; compounds at 5 μM (method says 10 μM); ratio of O.D. versus vehicle control
Here, each record is paired with measured Stimulation Index (average ± SD) data.
Form: value (number only, do not type unit).

Example entries begin here.
compound: COc1cc(/C=C/C(=O)CC(=O)/C=C/c2ccc(OC(=O)[C@@H](CCSC)NC(=O)OCc3ccccc3)c(OC)c2)ccc1OC(=O)[C@@H](CCSC)NC(=O)OCc1ccccc1
reported measurement: 1.37

compound: COc1cc(/C=C/C(=O)CC(=O)/C=C/c2ccc(OC(=O)[C@@H](NC(=O)OC(C)(C)C)C(C)C)c(OC)c2)ccc1OC(=O)[C@@H](NC(=O)OC(C)(C)C)C(C)C
reported measurement: 1.84

compound: COc1cc(/C=C/C(=O)CC(=O)/C=C/c2ccc(OC(=O)[C@@H](N)CCC(N)=O)c(OC)c2)ccc1OC(=O)[C@@H](N)CCC(N)=O.Cl.Cl [HCl-L-Gln-Cur]
reported measurement: 2.22

compound: COc1cc(/C=C/C(=O)CC(=O)/C=C/c2ccc(OC(=O)[C@H](Cc3ccccc3)NC(=O)OCC3c4ccccc4-c4ccccc43)c(OC)c2)ccc1OC(=O)[C@H](Cc1ccccc1)NC(=O)OCC1c2ccccc2-c2ccccc21
reported measurement: 1.78

Now consider the entry below.
Kindly note the recorded Stimulation Index (average ± SD) for `CC[C@H](C)[C@H](NC(=O)OC(C)(C)C)C(=O)Oc1ccc(/C=C/C(=O)CC(=O)/C=C/c2ccc(OC(=O)[C@@H](NC(=O)OC(C)(C)C)[C@@H](C)CC)c(OC)c2)cc1OC` , which is 2.07

----------
Tested on: carrageenan induced paw edema
protocol description: Anti-inflammatory activity: acute carrageenan induced paw edema in rats
Assay type: in vivo, Wister rats
condition set: 1 h; 10 mg kg^−1 indomethacin mol equivalent, intraperitoneally
readout kind: % inhibition of edema (%)
// units = %; emit number, no label

molecule: COc1cc(/C=C/C(=O)CC(=O)/C=C/c2ccc(OC(=O)[C@@H](CCSC)NC(=O)OCc3ccccc3)c(OC)c2)ccc1OC(=O)[C@@H](CCSC)NC(=O)OCc1ccccc1
reported measurement: 79
//
molecule: CC(C)Cc1ccc(C(C)C(=O)O)cc1 (centres unmarked)
reported measurement: 20
//
molecule: COc1ccc2c(c1)c(CC(=O)O)c(C)n2C(=O)c1ccc(Cl)cc1
reported measurement: 53

Kindly note the recorded % inhibition of edema for `COc1cc(/C=C/C(=O)CC(=O)/C=C/c2ccc(OC(=O)[C@@H](N)C(C)C)c(OC)c2)ccc1OC(=O)[C@@H](N)C(C)C.Cl.Cl` , which is 60

Kindly note the recorded % inhibition of edema for `COc1cc(/C=C/C(=O)CC(=O)/C=C/c2ccc(OC(=O)[C@@H](N)Cc3ccccc3)c(OC)c2)ccc1OC(=O)[C@@H](N)Cc1ccccc1.Cl.Cl` , which is 46
